Assay: Cmax in tissue cage fluid of Wistar rat infected with methicillin-resistant Staphylococcus aureus HUSA 304 at 45 mg/kg/day, ip
Type: ADME, organism-based, Interstitial fluid
Design: dose 45 mg/kg/day, route intraperitoneal

Sample Smiles	Cmax [ng/mL]
CCCCCCCCCC(=O)N[C@@H](Cc1c[nH]c2ccccc12)C(=O)N[C@H](CC(N)=O)C(=O)N[C@@H](CC(=O)O)C(=O)N[C@@H]1C(=O)NCC(=O)N[C@@H](CCCN)C(=O)N[C@@H](CC(=O)O)C(=O)N[C@H](C)C(=O)N[C@@H](CC(=O)O)C(=O)NCC(=O)N[C@H](CO)C(=O)N[C@@H]([C@H](C)CC(=O)O)C(=O)N[C@@H](CC(=O)c2ccccc2N)C(=O)O[C@@H]1C	26000

----------
Assay: AUC (0 to infinity) in serum of Wistar rat infected with methicillin-resistant Staphylococcus aureus HUSA 304 at 70 mg/kg/day, ip for 7 days
Assay type: ADME, organism-based
Parameters: dose 70 mg/kg/day, time infinity, route intraperitoneal

Sample Smiles	AUC(0-inf) / µg·h/mL
CCCCCCCCCC(=O)N[C@@H](Cc1c[nH]c2ccccc12)C(=O)N[C@H](CC(N)=O)C(=O)N[C@@H](CC(=O)O)C(=O)N[C@@H]1C(=O)NCC(=O)N[C@@H](CCCN)C(=O)N[C@@H](CC(=O)O)C(=O)N[C@H](C)C(=O)N[C@@H](CC(=O)O)C(=O)NCC(=O)N[C@H](CO)C(=O)N[C@@H]([C@H](C)CC(=O)O)C(=O)N[C@@H](CC(=O)c2ccccc2N)C(=O)O[C@@H]1C	984

----------
Experiment: AUC (0 to 24 hrs) in serum of human infected with methicillin-resistant Staphylococcus aureus HUSA 304 at 10 mg/kg/day, […]
Type: ADME, organism-based
Parameters: dose 10 mg/kg/day, time < 24 hr

Sample Smiles	AUC at 24 h, µg·h/mL
CCCCCCCCCC(=O)N[C@@H](Cc1c[nH]c2ccccc12)C(=O)N[C@H](CC(N)=O)C(=O)N[C@@H](CC(=O)O)C(=O)N[C@@H]1C(=O)NCC(=O)N[C@@H](CCCN)C(=O)N[C@@H](CC(=O)O)C(=O)N[C@H](C)C(=O)N[C@@H](CC(=O)O)C(=O)NCC(=O)N[C@H](CO)C(=O)N[C@@H]([C@H](C)CC(=O)O)C(=O)N[C@@H](CC(=O)c2ccccc2N)C(=O)O[C@@H]1C	1010

----------
Assay: AUC (0 to 24 hrs) in serum of human infected with methicillin-resistant Staphylococcus aureus HUSA 304 at 6 mg/kg/day, […]
Format: ADME, organism-based
Parameters: time < 24 hr, dose 6 mg/kg/day

Sample Smiles	AUC at 24 h [µg·h/mL]
CCCCCCCCCC(=O)N[C@@H](Cc1c[nH]c2ccccc12)C(=O)N[C@H](CC(N)=O)C(=O)N[C@@H](CC(=O)O)C(=O)N[C@@H]1C(=O)NCC(=O)N[C@@H](CCCN)C(=O)N[C@@H](CC(=O)O)C(=O)N[C@H](C)C(=O)N[C@@H](CC(=O)O)C(=O)NCC(=O)N[C@H](CO)C(=O)N[C@@H]([C@H](C)CC(=O)O)C(=O)N[C@@H](CC(=O)c2ccccc2N)C(=O)O[C@@H]1C	730
